// provenance: ChEMBL document CHEMBL1909046

# Experimental details: DRUGMATRIX: Interleukin IL-1 radioligand binding (ligand: [125I] interleukin 1beta)
# Type: cell membranes, Membrane
# Condition notes: nih3t3; Not Active = under 50% inhibition at 10 µM
Measured metric: Ki

- Substance: "LIPOPOLYSACCHARIDE E. COLI O55:B5"
  Endpoint result: "Not Active"
- Substance: "LEAD (II) ACETATE"
  Endpoint result: "Not Active"
- Substance: "CADMIUM ACETATE"
  Endpoint result: "Not Active"
- Substance: "SODIUM NITROPRUSSIDE"
  Endpoint result: "Not Active"

====

# Target: 5-hydroxytryptamine receptor 1A (Rattus norvegicus); note: in other assays of this panel Not Active means under 50% inhibition at 10 µM
# Sequence (P19327 whole entry): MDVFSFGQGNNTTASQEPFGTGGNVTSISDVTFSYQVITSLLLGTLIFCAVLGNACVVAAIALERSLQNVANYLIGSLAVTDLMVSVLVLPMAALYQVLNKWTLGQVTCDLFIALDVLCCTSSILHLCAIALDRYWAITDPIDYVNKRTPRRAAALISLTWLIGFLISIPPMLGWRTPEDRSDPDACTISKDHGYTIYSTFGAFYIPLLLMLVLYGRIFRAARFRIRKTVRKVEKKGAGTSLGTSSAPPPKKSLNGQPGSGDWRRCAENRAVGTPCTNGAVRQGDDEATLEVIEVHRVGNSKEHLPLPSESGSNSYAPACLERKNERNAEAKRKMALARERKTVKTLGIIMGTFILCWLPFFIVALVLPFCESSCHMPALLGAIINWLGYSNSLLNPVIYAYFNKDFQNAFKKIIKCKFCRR
# Type: cell membranes, CHO-K1, Membrane
# Condition notes: cho-k1
Measured metric: IC50

- Compound: "C=CCC1(C(C)CCC)C(=O)NC(=O)NC1=O (stereo not given)"
  Endpoint result: "Not Active"
- Compound: "NC[C@H]1CC[C@H](C(=O)O)CC1"
  Endpoint result: "Not Active"
- Compound: "N=C(N)NCCN1CCCCCCC1"
  Endpoint result: "Not Active"
- Compound: "CC1CC(OC(=O)C(O)c2ccccc2)CC(C)(C)C1 (stereo not given) [CYCLANDELATE]"
  Endpoint result: "Not Active"
- Compound: "CNCCc1ccccn1"
  Endpoint result: "Not Active"
- Compound: "O=c1[nH]c(=O)n([C@H]2C[C@H](O)[C@@H](CO)O2)cc1I"
  Endpoint result: "Not Active"
- Compound: "OCCN(CCO)c1nc(N2CCCCC2)c2nc(N(CCO)CCO)nc(N3CCCCC3)c2n1"
  Endpoint result: "Not Active"
- Compound: "CCC(C)n1ncn(-c2ccc(N3CCN(c4ccc(OCC5COC(Cn6cncn6)(c6ccc(Cl)cc6Cl)O5)cc4)CC3)cc2)c1=O (stereo not given)"
  Endpoint result: "Not Active"
- Compound: "Cc1ccc2cc3c(ccc4ccccc43)c3c2c1CC3"
  Endpoint result: "Not Active"
- Compound: "Cc1onc(O)c1CC(N)C(=O)O (racemic) [(R,S)-AMPA]"
  Endpoint result: "Not Active"

====

Measured pKi of individual entries
# Target: D(4) dopamine receptor (Homo sapiens, UniProt P21917)
# Sequence (P21917 whole entry): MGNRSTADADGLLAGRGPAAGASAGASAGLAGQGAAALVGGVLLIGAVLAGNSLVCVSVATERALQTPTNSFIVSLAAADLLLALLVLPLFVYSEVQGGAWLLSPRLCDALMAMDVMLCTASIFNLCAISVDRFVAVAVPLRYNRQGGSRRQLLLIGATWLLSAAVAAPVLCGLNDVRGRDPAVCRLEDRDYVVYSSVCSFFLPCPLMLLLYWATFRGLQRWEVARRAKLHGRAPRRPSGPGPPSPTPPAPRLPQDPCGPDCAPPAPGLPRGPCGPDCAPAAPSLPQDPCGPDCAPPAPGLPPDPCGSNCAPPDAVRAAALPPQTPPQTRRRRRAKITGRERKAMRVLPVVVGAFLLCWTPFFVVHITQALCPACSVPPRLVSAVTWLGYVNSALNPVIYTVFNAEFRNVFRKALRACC
# Experimental details: DRUGMATRIX: Dopamine D4.2 radioligand binding (ligand: [3H] Spiperone)
# Format: cell membranes, CHO-K1, Membrane
# Condition notes: Not Active = under 50% inhibition at 10 µM; read-out: Ki
pKi: −log10 of the molar value.

- Compound: "CCCCc1oc2ccccc2c1C(=O)c1cc(I)c(OCCN(CC)CC)c(I)c1 [AMIODARONE]"
  Target: "D(4) dopamine receptor (Homo sapiens, UniProt P21917)"
  pKi: 5.21
- Compound: "CN1CCN(CCCN2c3ccccc3Sc3ccc(Cl)cc32)CC1 [PROCHLORPERAZINE]"
  Target: "D(4) dopamine receptor (Homo sapiens, UniProt P21917)"
  pKi: 6.09
- Compound: "CC/C(=C(\\c1ccccc1)c1ccc(OCCN(C)C)cc1)c1ccccc1 [TAMOXIFEN]"
  Target: "D(4) dopamine receptor (Homo sapiens, UniProt P21917)"
  pKi: 5.41

====

# Target: UniProtKB P51681
# Sequence (P51681 whole entry): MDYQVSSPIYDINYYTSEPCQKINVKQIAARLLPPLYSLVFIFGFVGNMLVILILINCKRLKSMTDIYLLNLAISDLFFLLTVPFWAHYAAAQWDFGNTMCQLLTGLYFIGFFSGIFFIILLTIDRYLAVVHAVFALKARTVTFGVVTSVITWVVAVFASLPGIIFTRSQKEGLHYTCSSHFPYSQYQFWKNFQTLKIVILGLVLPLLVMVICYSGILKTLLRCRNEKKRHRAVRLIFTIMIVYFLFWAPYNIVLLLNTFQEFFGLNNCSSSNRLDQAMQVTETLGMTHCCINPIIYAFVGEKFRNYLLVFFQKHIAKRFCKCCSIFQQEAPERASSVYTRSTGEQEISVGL
# Type: cell membranes, Membrane
# Condition notes: hek293

- Molecule: "CSc1ccc(/C=C2/C(C)=C(CC(=O)O)c3cc(F)ccc32)cc1 [SULINDAC SULFIDE]"
  Target: "UniProtKB P51681"
  IC50: "Not Active"
- Molecule: "Cc1onc(-c2ccccc2Cl)c1C(=O)N[C@@H]1C(=O)N2[C@@H]1SC(C)(C)[C@@H]2C(=O)O"
  Target: "UniProtKB P51681"
  IC50: "Not Active"
- Molecule: "Cc1ccc(N(CC2=NCCN2)c2cccc(O)c2)cc1"
  Target: "UniProtKB P51681"
  IC50: "Not Active"

====

# Experimental details: DRUGMATRIX: Calcium Channel Type L, Phenylalkylamine radioligand binding (ligand: [3H] (-)-Desmethoxyverapamil (D-888))
# Type: cell membranes, Rattus norvegicus, Wistar, Brain, Membrane
# Condition notes: Not Active = under 50% inhibition at 10 µM; read-out: IC50
pIC50: −log10 of the molar value.

- Compound: "CN(C)CCCN1c2ccccc2Sc2ccccc21 [PROMAZINE]"
  pIC50: 5.92
- Compound: "CCCN1C[C@H](CSC)C[C@@H]2c3cccc4[nH]cc(c34)C[C@H]21 [PERGOLIDE]"
  pIC50: 6.04
- Compound: "O=C(CCCN1CC=C(n2c(=O)[nH]c3ccccc32)CC1)c1ccc(F)cc1 [DROPERIDOL]"
  pIC50: 5.38
- Compound: "CC(C)N1CCN(c2ccc(OCC3COC(Cn4cncn4)(c4ccc(Cl)cc4Cl)O3)cc2)CC1 (stereo not drawn) [TERCONAZOLE]"
  pIC50: 5.46
- Compound: "Cc1ccc(N(CC2=NCCN2)c2cccc(O)c2)cc1 [PHENTOLAMINE]"
  pIC50: 6.13
- Compound: "C1CCC(C(CC2CCCCN2)C2CCCCC2)CC1 (stereo not drawn) [PERHEXILINE]"
  pIC50: 5.87
- Compound: "CN(C)CCCN1c2ccccc2Sc2ccc(Cl)cc21 [CHLORPROMAZINE]"
  pIC50: 5.82
- Compound: "CC(C)(C)NC(=O)[C@@H]1C[C@@H]2CCCC[C@@H]2CN1C[C@@H](O)[C@H](Cc1ccccc1)NC(=O)[C@H](CC(N)=O)NC(=O)c1ccc2ccccc2n1"
  pIC50: 5.17

====

# Target: Tyrosine-protein kinase Fyn (Homo sapiens, UniProt P06241);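 note: enzymatic inhibition of Fyn kinase activity measured with Poly(Glu:Tyr) as the phosphorylation substrate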; note: in other assays of this panel Not Active means under 50% inhibition at 10 µM
# Sequence (P06241 whole entry): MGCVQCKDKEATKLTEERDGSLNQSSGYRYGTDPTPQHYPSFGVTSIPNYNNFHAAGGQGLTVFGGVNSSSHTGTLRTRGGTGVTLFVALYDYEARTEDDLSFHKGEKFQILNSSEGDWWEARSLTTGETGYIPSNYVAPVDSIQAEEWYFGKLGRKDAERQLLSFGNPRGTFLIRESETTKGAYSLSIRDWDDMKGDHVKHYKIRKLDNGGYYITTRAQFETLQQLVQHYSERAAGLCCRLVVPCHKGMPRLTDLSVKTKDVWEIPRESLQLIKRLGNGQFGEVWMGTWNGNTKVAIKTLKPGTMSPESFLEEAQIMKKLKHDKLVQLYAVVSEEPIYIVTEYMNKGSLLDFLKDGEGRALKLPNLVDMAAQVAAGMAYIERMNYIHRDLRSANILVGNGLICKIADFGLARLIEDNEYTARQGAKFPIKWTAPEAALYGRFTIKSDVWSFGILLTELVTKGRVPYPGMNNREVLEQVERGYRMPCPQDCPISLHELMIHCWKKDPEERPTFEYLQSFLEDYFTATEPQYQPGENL
# Experimental details: biochemical
# Format: cell-based, Insect cells
# Condition notes: read-out: IC50
pIC50: −log10 of the molar value.

- Compound: "C1CCC(C(CC2CCCCN2)C2CCCCC2)CC1 (stereo unspecified) [PERHEXILINE]"
  pIC50: 5.39
- Compound: "CC/C(=C(\\c1ccccc1)c1ccc(OCCN(C)C)cc1)c1ccccc1 [TAMOXIFEN]"
  pIC50: 5.92
- Compound: "Cc1cc(C(C#N)c2ccc(Cl)cc2)c(Cl)cc1NC(=O)c1cc(I)cc(I)c1O (stereo unspecified) [CLOSANTEL]"
  pIC50: 6.03
- Compound: "CCC(C)n1ncn(-c2ccc(N3CCN(c4ccc(OCC5COC(Cn6cncn6)(c6ccc(Cl)cc6Cl)O5)cc4)CC3)cc2)c1=O (stereo unspecified) [ITRACONAZOLE]"
  pIC50: 5.41
- Compound: "CC(C)N1CCN(c2ccc(OCC3COC(Cn4cncn4)(c4ccc(Cl)cc4Cl)O3)cc2)CC1 (stereo unspecified) [TERCONAZOLE]"
  pIC50: 4.96
- Compound: "CN1CCN(CCCN2c3ccccc3Sc3ccc(Cl)cc32)CC1 [PROCHLORPERAZINE]"
  pIC50: 5.25
- Compound: "CCCCc1oc2ccccc2c1C(=O)c1cc(I)c(OCCN(CC)CC)c(I)c1 [AMIODARONE]"
  pIC50: 6.09
- Compound: "C[C@](N)(Cc1ccc(O)c(O)c1)C(=O)O [METHYLDOPA]"
  pIC50: 5.29
- Compound: "Cc1ccc2cc3c(ccc4ccccc43)c3c2c1CC3 [3-METHYLCHOLANTHRENE]"
  pIC50: 4.60
- Compound: "N[C@@H](Cc1ccc(O)c(O)c1)C(=O)O [LEVODOPA]"
  pIC50: 5.67
- Compound: "CN(C)CCCN1c2ccccc2Sc2ccc(Cl)cc21 [CHLORPROMAZINE]"
  pIC50: 5.06

====

# Experimental details: DRUGMATRIX: Calcium Channel Type L, Benzothiazepine radioligand binding (ligand: [3H] Diltiazem)
# Type: cell membranes, Rattus norvegicus, Wistar, Brain, Membrane
# Condition notes: Not Active = under 50% inhibition at 10 µM

- Molecule: "N[C@@H](Cc1ccc(N(CCCl)CCCl)cc1)C(=O)O"
  IC50: "Not Active"
- Molecule: "C[C@H]1O[C@@H](O[C@H]2[C@@H](O)C[C@H](O[C@H]3[C@@H](O)C[C@H](O[C@H]4CC[C@@]5(C)[C@H](CC[C@@H]6[C@@H]5C[C@@H](O)[C@]5(C)[C@@H](C7=CC(=O)OC7)CC[C@]65O)C4)O[C@@H]3C)O[C@@H]2C)C[C@H](O)[C@@H]1O"
  IC50: "Not Active"
- Molecule: "Cc1cc(C2CCCCC2)n(O)c(=O)c1"
  IC50: "Not Active"
- Molecule: "Nc1nc2c(ncn2COCCO)c(=O)[nH]1"
  IC50: "Not Active"
- Molecule: "Cc1onc(O)c1CC(N)C(=O)O (racemic) [(R,S)-AMPA]"
  IC50: "Not Active"
- Molecule: "CC1(C)S[C@@H]2[C@H](NC(=O)Cc3ccccc3)C(=O)N2[C@H]1C(=O)O"
  IC50: "Not Active"
- Molecule: "O=C1CC[C@@H](N2C(=O)c3ccccc3C2=O)C(=O)N1"
  IC50: "Not Active"
- Molecule: "O=c1ncn2nc(Sc3ccc(F)cc3F)ccc2c1-c1c(Cl)cccc1Cl"
  IC50: "Not Active"
- Molecule: "CCCCc1nc(Cl)c(CO)n1Cc1ccc(-c2ccccc2-c2nnn[nH]2)cc1"
  IC50: "Not Active"
